- target.desc: EcALP (D101S, an active mutant of Escherichia coli ALP) (Escherichia coli, UniProt P00634, D123S)
- Construct: D101S mutant, cell-free synthesis (PURExpress with disulfide bond enhancer), not purified; homodimeric metalloenzyme
- Sequence (P00634 22-471 D123S): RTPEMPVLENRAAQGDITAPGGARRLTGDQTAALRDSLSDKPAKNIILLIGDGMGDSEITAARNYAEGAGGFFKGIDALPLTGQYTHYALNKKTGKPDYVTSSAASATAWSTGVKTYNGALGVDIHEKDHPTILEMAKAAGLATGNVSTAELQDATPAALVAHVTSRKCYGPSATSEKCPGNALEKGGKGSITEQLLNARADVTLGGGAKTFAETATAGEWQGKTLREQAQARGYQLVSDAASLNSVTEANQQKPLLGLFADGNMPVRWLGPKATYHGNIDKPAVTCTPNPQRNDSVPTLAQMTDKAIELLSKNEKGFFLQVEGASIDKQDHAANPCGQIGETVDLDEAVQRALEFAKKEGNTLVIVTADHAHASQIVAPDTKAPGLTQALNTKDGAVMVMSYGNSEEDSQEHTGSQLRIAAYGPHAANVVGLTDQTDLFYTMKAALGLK
- measurement.notes: fluorogenic ALP assay, bulk microtiter plate, Hill fit
- conditions: […] 4-MUP, […] DEA-HCl, […] MgCl2, […] ZnSO4, pH […] TWEEN20, […] °C; […] min preincubation; diluted cell-free synthesis mixture
measured.metric: pIC50
Would you please state pIC50, meaning minus log10 of the concentration in mol/L, as a bare number?

Recorded pIC50 of [O]=[V]([OH])([OH])[OH] [V, vanadate] , please.
2.11
